- System Under Test: Cytochrome P450 3A4 (Homo sapiens) (UniProt P08684)
- Sequence (P08684 whole entry, looked up): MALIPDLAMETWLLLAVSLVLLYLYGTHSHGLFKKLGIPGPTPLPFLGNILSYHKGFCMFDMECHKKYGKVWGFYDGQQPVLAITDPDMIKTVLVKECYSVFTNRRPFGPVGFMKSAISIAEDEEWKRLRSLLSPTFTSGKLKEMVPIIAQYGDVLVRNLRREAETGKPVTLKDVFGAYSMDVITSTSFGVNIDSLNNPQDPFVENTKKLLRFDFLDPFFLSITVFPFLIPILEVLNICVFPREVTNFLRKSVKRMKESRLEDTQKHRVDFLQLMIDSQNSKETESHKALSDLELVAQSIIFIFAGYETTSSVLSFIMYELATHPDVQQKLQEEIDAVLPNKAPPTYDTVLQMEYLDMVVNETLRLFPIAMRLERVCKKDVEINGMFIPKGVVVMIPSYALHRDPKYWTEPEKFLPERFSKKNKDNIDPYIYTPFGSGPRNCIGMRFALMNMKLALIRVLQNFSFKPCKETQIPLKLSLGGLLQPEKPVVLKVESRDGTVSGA
- Experiment Description: qHTS Assay for Inhibitors and Substrates of Cytochrome P450 3A4 (AID 884); note: % is set by controls: 0 for no effect and ±100 for the full control effect; nearly all actives have a fitted effect of over 50% in size
- Condition Context: recombinant CYP3A4, Luciferin-PPXE luminescence; series mostly up to 57.1 µM
Records with an inconclusive call do not appear. Calls of active or inactive are those of the source. Calls come from the whole dose curve; as a rule, active = well fitted inhibition curve with a large enough effect; inconclusive = small, poorly fitted or top-dose-only effect; inactive = no such curve, though single readings can be large or run the other way.
Reported Property: activity change, negative = inhibition

Some molecules with recorded activity change, negative = inhibition:
1. N=C(N)SCCN1CCCCC1    -31.7% [at 11.4 µM] (inactive)
2. c1ccc(CNCCN2CCNCC2)nc1    -5.12% [at 11.4 µM] (inactive)

input: Can you share its activity change, negative = inhibition? I mean this molecule: C[C@H]1[C@H](O)[C@@H](C)C=CC=CC=CC=CC=CC=CC=C[C@H](O[C@@H]2O[C@@H](C)[C@H](O)[C@@H](N)[C@@H]2O)C[C@@H]2O[C@](O)(C[C@@H](O)C[C@@H](O)[C@@H](O)CC[C@@H](O)C[C@@H](O)CC(=O)O[C@H]1C)C[C@H](O)[C@H]2C(=O)O
output: -24.7% [at 11.4 µM] (inactive)

input: Then this molecule: O=C1c2ccccc2C(O)(O)[C@@]1(O)[C@]1(O)C(=O)c2ccccc2C1(O)O
output: 11.5% [at 11.4 µM] (inactive)

input: Then this molecule: O=c1[nH]c(SCc2ccccc2[N+](=O)[O-])nc2nc[nH]c12
output: -21.6% [at 11.4 µM] (inactive)

input: Then this molecule: CC(=O)OCC(=O)[C@]12OC(C)(C)O[C@@H]1C[C@H]1[C@H]3CC=C4C[C@@H](O)CC[C@]4(C)[C@H]3CC[C@]12C
output: 69.9% [at 11.4 µM] (inactive)

input: Then this molecule: Cc1cc(N2CCOCC2)nc2ccc(Cc3ccc4nc(N5CCOCC5)cc(C)c4c3)cc12
output: 91.2% [at 11.4 µM] (inactive)

input: Then this molecule: O=C(O)CSCC(=O)c1ccccc1
output: -4.13% [at 11.4 µM] (inactive)
